Entries and their EC50
# Test system: recombinant NL-Rluc virus (NL4-3 with Renilla Luciferase gene) in MT-2 cells
# assay-details: Inhibition of HIV replication (NL-Rluc luciferase reporter virus, MT-2 cells)
# Format: cell-based, human immunodeficiency virus (HIV)
# condition-context: NL43, 120 h, read-out: Activity
Structures can show the parent of a compound that is named as a salt.

>  <compound>
COc1cc(-c2cccc(-c3cc4nc(C)c([C@H](OC(C)(C)C)C(=O)O)c(-c5cc(F)c6c(c5C)CCCO6)n4n3)c2)ccn1

>  <EC50>
< 100 nM

$$$$
>  <compound>
Cc1ccc(-c2c([C@H](OC(C)(C)C)C(=O)O)c(C)nc3cc(-c4cccc(Cl)c4)nn23)cc1

>  <EC50>
100 to 1000 nM

$$$$
>  <compound>
Cc1ccccc1-c1c(C(OC(C)(C)C)C(=O)O)c(C)nc2cc(-c3ccccc3)nn12 (centres unmarked)

>  <EC50>
> 1000 nM

$$$$
>  <compound>
Cc1nc2cc(-c3ccccc3)nn2c(-c2ccc(OC(F)(F)F)cc2)c1C(OC(C)(C)C)C(=O)O (centres unmarked)

>  <EC50>
> 1000 nM

$$$$
>  <compound>
Cc1nc2cc(-c3ccccc3)nn2c(-c2ccc(F)cc2Cl)c1C(OC(C)(C)C)C(=O)O (centres unmarked)

>  <EC50>
> 1000 nM

$$$$
>  <compound>
Cc1nc2cc(-c3ccc4c(c3)CCCC4)nn2c(-c2ccc(Cl)cc2)c1[C@H](OC(C)(C)C)C(=O)O

>  <EC50>
100 to 1000 nM

$$$$
>  <compound>
Cc1ccc(-c2c(C(OC(C)(C)C)C(=O)O)c(C)nc3cc(-c4ccccc4)nn23)cc1F (centres unmarked)

>  <EC50>
> 1000 nM

$$$$
>  <compound>
Cc1nc2c(C)c(-c3ccccc3)nn2c(-c2cc(F)c3c(c2C)CCCO3)c1[C@H](OC(C)(C)C)C(=O)O

>  <EC50>
< 100 nM

$$$$
>  <compound>
Cc1nc2c(-c3ccccc3)cnn2c(-c2ccc3c(c2)CCCO3)c1C(OC(C)(C)C)C(=O)O (centres unmarked) [Example 45, TFA salt]

>  <EC50>
100 to 1000 nM

$$$$
>  <compound>
Cc1nc2cc(-c3ccccc3)nn2c(-c2cccc3cn[nH]c23)c1C(OC(C)(C)C)C(=O)O (centres unmarked)

>  <EC50>
> 1000 nM

$$$$
>  <compound>
Cc1nc2cc(-c3ccccc3)nn2c(-c2ccc3c(ccn3C)c2)c1C(OC(C)(C)C)C(=O)O (centres unmarked)

>  <EC50>
100 to 1000 nM

$$$$
>  <compound>
Cc1nc2cc(-c3ccccc3)nn2c(-c2ccc(Cl)cc2F)c1C(OC(C)(C)C)C(=O)O (centres unmarked)

>  <EC50>
> 1000 nM

$$$$
>  <compound>
Cc1nc2cc(-c3ccccc3)nn2c(-c2ccc3ccncc3c2)c1C(OC(C)(C)C)C(=O)O (centres unmarked)

>  <EC50>
> 1000 nM

$$$$
>  <compound>
Cc1nc2cc(-c3ccccc3)nn2c(-c2ccc(C(C)(C)C)cc2)c1C(OC(C)(C)C)C(=O)O (centres unmarked)

>  <EC50>
> 1000 nM

$$$$
>  <compound>
Cc1nc2c(-c3cccc(-c4ccncc4)c3)cnn2c(-c2cc(F)c3c(c2C)CCCO3)c1C(OC(C)(C)C)C(=O)O (centres unmarked)

>  <EC50>
100 to 1000 nM

$$$$
>  <compound>
Cc1nc2cc(-c3cccc(-c4ccnc(N5CCN(C)CC5)c4)c3)nn2c(-c2cc(F)c3c(c2C)CCCO3)c1[C@H](OC(C)(C)C)C(=O)O

>  <EC50>
< 100 nM

$$$$
>  <compound>
Cc1nc2c(C)c(-c3cccc(Cl)c3)nn2c(-c2cc(F)c3c(c2C)CCCO3)c1[C@H](OC(C)(C)C)C(=O)O

>  <EC50>
100 to 1000 nM

$$$$
>  <compound>
Cc1cccc(-c2c(C(OC(C)(C)C)C(=O)O)c(C)nc3cc(-c4ccccc4)nn23)c1 (centres unmarked)

>  <EC50>
> 1000 nM

$$$$
>  <compound>
Cc1nc2cc(-c3ccccc3)nn2c(-c2cc3ccccc3s2)c1C(OC(C)(C)C)C(=O)O (centres unmarked)

>  <EC50>
> 1000 nM

$$$$
>  <compound>
Cc1nc2cc(-c3ccccc3)nn2c(-c2ccc(N(C)C)cc2)c1C(OC(C)(C)C)C(=O)O (centres unmarked)

>  <EC50>
> 1000 nM

$$$$
>  <compound>
Cc1nc2c(-c3ccc(F)cc3)c(-c3ccccc3)nn2c(-c2cc(F)c3c(c2C)CCCO3)c1C(OC(C)(C)C)C(=O)O (centres unmarked)

>  <EC50>
> 1000 nM

$$$$
>  <compound>
Cc1nc2cc(-c3ccccc3)nn2c(-c2cnc3[nH]ccc3c2)c1C(OC(C)(C)C)C(=O)O (centres unmarked)

>  <EC50>
> 1000 nM

$$$$
>  <compound>
Cc1nc2c(Cl)c(C)nn2c(-c2ccc3c(c2)CCCO3)c1C(OC(C)(C)C)C(=O)O (centres unmarked)

>  <EC50>
100 to 1000 nM

$$$$
>  <compound>
Cc1nc2cc(-c3cccc(C(=O)Nc4ccccc4)c3)nn2c(-c2cc(F)c3c(c2C)CCCO3)c1C(OC(C)(C)C)C(=O)O (centres unmarked) [Example 110, TFA salt]

>  <EC50>
100 to 1000 nM

$$$$
>  <compound>
CCc1ccc(-c2c(C(OC(C)(C)C)C(=O)O)c(C)nc3cc(-c4ccccc4)nn23)cc1 (centres unmarked)

>  <EC50>
> 1000 nM

$$$$
>  <compound>
Cc1cccc(-c2cc3nc(C)c(C(OC(C)(C)C)C(=O)O)c(-c4ccc5c(c4)CCCO5)n3n2)c1 (centres unmarked) [Example 114, TFA salt]

>  <EC50>
100 to 1000 nM

$$$$
>  <compound>
Cc1nc2cc(-c3ccccc3)nn2c(C)c1C(OC(C)(C)C)C(=O)O (centres unmarked) [Example 43, TFA salt]

>  <EC50>
> 1000 nM

$$$$
>  <compound>
Cc1nc2cc(-c3ccccc3)nn2c(-c2cc3ccccc3o2)c1C(OC(C)(C)C)C(=O)O (centres unmarked)

>  <EC50>
> 1000 nM

$$$$
>  <compound>
Cc1nc2cc(-c3ccccc3)nn2c(-c2ccc(Cl)cc2)c1C(OC(C)(C)C)C(=O)O (centres unmarked)

>  <EC50>
> 1000 nM

$$$$
